target_under_test: D(2) dopamine receptor (Bos taurus)
assay_overview: Affinity for Dopamine receptor D2 using [3H]YM-09151-2 was carried out on bovine retinal membrane preparations (high-affinity)
Design: species or system Retina
readout_name: pKi
# log scale: pKi equals minus log10 of the concentration in mol/L

// solved cases for pKi follow
compound	pKi
Cc1cccc(C(=O)NCN2CCN(c3ccccc3C#N)CC2)c1	7.60
CCCN1CCCC(c2ccc(C)c(C)c2)C1 (stereo not given)	7.57
CCCN1CCCC(C2CCC(C)CC2)C1 (stereo not given)	8.40
CCCN1CCCC(c2ccccc2)C1 (stereo not given)	7.41
CCCN1CCCC(C2CCCC(C)C2)C1 (stereo not given)	8.30
CCCN1CCCC(c2ccc(C)cc2)C1 (stereo not given)	7.36
CCCN1CCCC(c2cccc(C)c2)C1 (stereo not given)	7.38
CCCN1CCCC(C2CCCCC2C)C1 (stereo not given)	7.59

Record lookup: for D(2) dopamine receptor (Bos taurus), what pKi belongs to CCCN1CCCC(c2ccccc2C)C1 (stereo not given) ? 6.35

Entry to check: CCCN1CCCC(C2CCCCC2)C1 (stereo not given) 8.40

###

target_under_test: D(2) dopamine receptor (Bos taurus, UniProt P20288)
Sequence (P20288 whole entry): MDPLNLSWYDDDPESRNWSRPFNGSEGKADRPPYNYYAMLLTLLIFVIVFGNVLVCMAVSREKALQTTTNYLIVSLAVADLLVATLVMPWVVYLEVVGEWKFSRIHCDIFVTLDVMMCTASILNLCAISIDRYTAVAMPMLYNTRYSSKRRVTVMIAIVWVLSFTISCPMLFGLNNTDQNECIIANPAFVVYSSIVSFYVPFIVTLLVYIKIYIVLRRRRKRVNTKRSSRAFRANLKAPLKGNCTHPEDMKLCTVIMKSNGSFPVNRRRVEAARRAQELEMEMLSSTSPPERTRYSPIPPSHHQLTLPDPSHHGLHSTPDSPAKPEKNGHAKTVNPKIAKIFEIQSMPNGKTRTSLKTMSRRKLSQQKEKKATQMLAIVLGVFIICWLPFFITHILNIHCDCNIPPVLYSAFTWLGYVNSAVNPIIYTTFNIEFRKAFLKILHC
assay_overview: Affinity for Dopamine receptor D2 using [3H]-YM-09151-2 was carried out on bovine striatal membrane preparations
Set-up: species or system Striatum
readout_name: Ki (µM)
State just the number; it will be interpreted in µM.

Requested field: Ki. Item: CCCN1CCCC(c2ccccc2)C1 (centres undefined) 10.8

How about this compound: Cc1cccc(C(=O)NCN2CCN(c3ccccc3C#N)CC2)c1 18.3

###

target_under_test: D(2) dopamine receptor (Bos taurus, UniProt P20288)
assay_overview: Affinity for Dopamine receptor D2 using [3H]-YM-09151-2 was carried out on bovine striatal membrane preparations
Parameters: species or system Striatum
Parameter Ki: see the listing below.
# output: bare number, implied unit µM

Request body: readout Ki, system D(2) dopamine receptor (Bos taurus, UniProt P20288), query CCCN1CCCC(c2ccc(C)cc2)C1 (configuration not stated) . Return the value. 13.8

// repeat for CCCN1CCCC(C2CCC(C)CC2)C1 (configuration not stated) and report 20

CCCN1CCCC(C2CCCC(C)C2)C1 (configuration not stated) ? 10

How about this molecule: CCCN1CCCC(c2ccc(C)c(C)c2)C1 (configuration not stated) 8.1

Here is the next molecule: CCCN1CCCC(C2CCCCC2C)C1 (configuration not stated) 0.42

Check CCCN1CCCC(c2ccccc2C)C1 (configuration not stated) too. 1.51

Next molecule: CCCN1CCCC(C2CCCCC2)C1 (configuration not stated) 14.4

Cited source: ChEMBL document CHEMBL1145978
